# System: HIV-1 pREJO.c/2864 cl2
# assay.procedure: microbe, parasite or virus in culture
# Type: cell-based
# run.parameters: Human immunodeficiency virus 1, TZM-bl, 48 h, read-out: IC50 pREJO.c/2864 cl2
measurement.type: IC50
Enter the number, and then the unit.

Request: Given the compound Cc1cc(C)c(Nc2ccnc(Nc3ccc(C#N)cc3)n2)c(C)c1 [TMC120 Dapivirine, Dapivirine] , what is its reported IC50?
Result: 1.6 nM

###

# Tested on: HIV strains from different subtypes
# assay.procedure: TZM-bl antiviral assay, whole panel of strains
# Type: cell-based, HIV-1
# run.parameters: Human immunodeficiency virus 1, TZM-bl, read-out: active concentration across the panel
measurement.type: IC50

Request: If you can, please state the reported IC50 value of Cc1cc(C)c(Nc2ccnc(Nc3ccc(C#N)cc3)n2)c(C)c1 [TMC120 Dapivirine, Dapivirine] .
Result: 1 to 2 nM

###

# Tested on: SHIV162P3
# assay.procedure: TZM-bl antiviral assay, SHIV162P3
# Assay type: cell-based, SHIV
# run.parameters: Table 2; B-R5; 10^-3 MOI, TZM-bl cells, 48 h; mean of at least 2 independent experiments, triplicates
# Method: The IC50 of the various mCD4-conjugates were measured in TZM-bl cells (NIH AIDS Reagent Program, Germantown, MD 20874, US). This cell line expresses high densities of CD4, CCR5 and CXCR4. […] Next, the luciferase activity was measured using a TriStar LB941 luminometer (Berthold Technologies GmbH & Co. KG., Bad Wildbad, Germany) and expressed in relative light units (RLU) as a percentage of positive control wells. […]
measurement.type: IC50

Request: So what's the measured IC50 for this one? Cc1cc(C)c(Nc2ccnc(Nc3ccc(C#N)cc3)n2)c(C)c1
Result: > 1000 nM

###

# System: HIV-1 SF162
# assay.procedure: TZM-bl antiviral assay, SF162
# Type: cell-based
# run.parameters: Human immunodeficiency virus 1; Table 2; B-R5; 10^-3 MOI, TZM-bl cells, 48 h; mean of at least 2 independent experiments, triplicates
measurement.type: pIC50
The quantity pIC50 is defined as the negative base-10 logarithm of the molar concentration.

Request: Which value of pIC50 has been reported for Cc1cc(C)c(Nc2ccnc(Nc3ccc(C#N)cc3)n2)c(C)c1 [TMC120 Dapivirine, Dapivirine] in the records?
Result: 8.89
